# Tested on: sound-susceptible mice (audiogenic seizures, clonic convulsions)
# method-notes: Audiogenic seizure test in sound-susceptible mice
# Type: in vivo
# conditions-used: ip
# Protocol: The objective of this test is to evaluate the anticonvulsant potency of a compound in sound-susceptible mice, a genetic animal model with reflex seizures. […] For testing, the animals were placed in small cages, one mouse per cage, in a sound-attenuated chamber. […] During this interval, the mice were observed and the presence of the 3 phases of the seizure activity namely wild running, clonic and tonic convulsions, was recorded. […]
quantity: AUD CC (ED50 for inhibition of Clonic Convulsions in the Audiogenic seizure test) (mol/kg)

compound	readout-unit	value-measured
CC[C@@H](C(N)=O)N1CC(CN=[N+]=[N-])CCC1=O (stereo partly drawn) [Compound 7]	mol/kg	0.00012
CCC(C(N)=O)N1CC(c2ccccc2)CCC1=O (stereo not drawn) [Compound 9]	mol/kg	0.00028
CC[C@@H](C(N)=O)N1CC(CN=[N+]=[N-])CCC1=O (stereo partly drawn) [Compound 8]	mol/kg	0.00028
CCC(C(N)=O)N1CC(c2ccccc2)CCC1=O (stereo not drawn) [Compound 11]	mol/kg	7e-05
